# SYSTEM UNDER TEST: human CA-IX (Homo sapiens)
# Construct: purchased Acro CA9-H82E3
# ASSAY: Surface Plasmon Resonance (SPR) binding kinetics to recombinant human CA-IX (Biacore 8K, single-cycle kinetics, 1:1 binding model)
# TEST PARAMETERS: Chelated Metal: None; SPR, 25° C., pH 7.4; read-out: CAIX KD
pKd: −log10 of the molar value.
REPORTED PROPERTY: pKd

IN: # pKd lookup, item CC(CCC(=O)N[C@@H](CC(=O)N[C@@H](CC(=O)N1CCN(C(=O)CCC(CCC(=O)N2CCN(C(=O)C[C@H](NC(=O)C[C@H](NC(=O)CCC(C)(c3ccc(O)cc3)c3ccc(O)cc3)C(=O)O)C(=O)O)[C@H](C(=O)NCCn3cc(C45CC(C(=O)Nc6nnc(S(N)(=O)=O)s6)(C4)C5)nn3)C2)NC(=O)CN2CCN(CC(=O)O)CCN(CC(=O)O)CCN(CC(=O)O)CC2)C[C@H]1C(=O)NCCn1cc(C23CC(C(=O)Nc4nnc(S(N)(=O)=O)s4)(C2)C3)nn1)C(=O)O)C(=O)O)(c1ccc(O)cc1)c1ccc(O)cc1 (stereo partly drawn)
OUT: > 9.00

IN: # pKd lookup, item CC(CCCC(=O)N[C@@H](CC(=O)N[C@@H](CC(=O)N1CCN(C(=O)CN2CCN(CC(=O)O)CCN(CC(=O)O)CCN(CC(=O)O)CC2)C[C@H]1C(=O)NCCn1cc(C23CC(C(=O)Nc4nnc(S(N)(=O)=O)s4)(C2)C3)nn1)C(=O)O)C(=O)O)(c1ccc(O)cc1)c1ccc(O)cc1
OUT: > 9.00

IN: # pKd lookup, item CC(CCC(=O)N[C@@H](CC(=O)N[C@@H](CC(=O)N1CCN(C(=O)CCOCCOCCOCCOCCN(CCOCCOCCOCCOCCC(=O)N2CCN(C(=O)C[C@H](NC(=O)C[C@H](NC(=O)CCC(C)(c3ccc(O)cc3)c3ccc(O)cc3)C(=O)O)C(=O)O)[C@H](C(=O)NCCn3cc(C45CC(C(=O)Nc6nnc(S(N)(=O)=O)s6)(C4)C5)nn3)C2)C(=O)CN2CCN(CC(=O)O)CCN(CC(=O)O)CCN(CC(=O)O)CC2)C[C@H]1C(=O)NCCn1cc(C23CC(C(=O)Nc4nnc(S(N)(=O)=O)s4)(C2)C3)nn1)C(=O)O)C(=O)O)(c1ccc(O)cc1)c1ccc(O)cc1
OUT: > 9.00

* * *

# SYSTEM UNDER TEST: human CA-IX (Homo sapiens, UniProt Q16790)
# Construct: purchased Acro CA9-H82E3
# ASSAY: Surface Plasmon Resonance (SPR) binding kinetics to recombinant human CA-IX (Biacore 8K, single-cycle kinetics, 1:1 binding model)
# TEST PARAMETERS: Chelated Metal: Lu-175; SPR, 25° C., pH 7.4; read-out: CAIX KD
Each entry below carries its reported Kd.

Recorded results for 2 compounds are shown here.
MOL	Kd
NS(=O)(=O)c1nnc(NC(=O)C23CC(c4cn(CCNC(=O)[C@@H]5CN(C(=O)CN6CCN(CC(=O)O)CCN(CC(=O)O)CCN(CC(=O)O)CC6)CCN5C(=O)CNC(=O)C5(C(=O)O)CCN(C(=O)Cc6ccc(C7CC7)cc6)CC5)nn4)(C2)C3)s1.[Lu+3]	1 to 2.5 nM
NS(=O)(=O)c1nnc(NC(=O)C23CC(c4cn(CCNC(=O)[C@@H]5CN(C(=O)CN6CCN(CC(=O)O)CCN(CC(=O)O)CCN(CC(=O)O)CC6)CCN5C(=O)C[C@H](NC(=O)C[C@H](NC(=O)CCC5CCCCCC5)C(=O)O)C(=O)O)nn4)(C2)C3)s1.[Lu+3]	< 1 nM

Now turn to the next compound.
IN: # Kd lookup, item CC[C@H]1CN(CC(=O)O)[C@@H](CC)CN(CC(=O)N2CCN(C(=O)C[C@H](NC(=O)C[C@H](NC(=O)CCC(C)(c3ccc(O)cc3)c3ccc(O)cc3)C(=O)O)C(=O)O)[C@H](C(=O)NCCn3cc(C45CC(C(=O)Nc6nnc(S(N)(=O)=O)s6)(C4)C5)nn3)C2)[C@@H](CC)CN(CC(=O)O)[C@@H](CC)CN1CC(=O)O.[Lu+3]
OUT: < 1 nM

From: patent US20260325685A1
